SYSTEM: DCN1 (DCUND1) protein PONY domain (Homo sapiens (Human))
Sequence (Q96GG9 60-248): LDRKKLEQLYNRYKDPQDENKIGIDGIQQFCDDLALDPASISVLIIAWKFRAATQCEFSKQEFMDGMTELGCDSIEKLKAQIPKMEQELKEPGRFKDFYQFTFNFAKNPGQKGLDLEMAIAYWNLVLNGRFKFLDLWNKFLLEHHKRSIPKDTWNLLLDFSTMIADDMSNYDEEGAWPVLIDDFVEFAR
PROCEDURE_SUMMARY: TR-FRET assay, DCN1 binding with FAM-labeled probe
EXPERIMENTAL_CONTEXT: read-out: TR FRET IC50 1 hr; 1 hr after treatment with compound
OUTCOME_MEASURE: IC50

Use these answered entries as a reference point.
1) C=C(CN(C)CC1COC1)C(=O)NCc1nn(-c2ccccc2)c2c1[C@H](c1ccc(F)cc1)[C@H](NC(=O)c1cccc(C(F)(F)F)c1)C(=O)N2CC [Compound I-574]; ≤ 200 nM
2) CCN1C(=O)[C@@H](NC(=O)c2cccc(C(F)(F)F)c2F)[C@@H](C2CC2)c2c(C(=O)N3[C@H](C#N)C[C@H]4C[C@H]43)nn(C3CCOCC3)c21 [Compound I-514]; ≤ 200 nM

Continue with the compound presented below.
For CCN1C(=O)[C@@H](NC(=O)c2cccc(C(F)(F)F)c2)[C@@H](c2ccc(F)cc2)c2c(C(=O)N(CC#N)CC#N)nn(C3CCOCC3)c21 [Compound I-365] , what is its reported IC50? ≤ 200 nM

Where these numbers come from: patent US20250163057A1
